System: Intestine
experimentalDetails: Drug uptake in ICR mouse intestine assessed per organ at 370 kBq/100 ul, iv at 30 mins by gamma-counting analysis
Assay type: ADME, organism-based
conditionSet: in vivo, 0.5 h
quantityKind: Drug uptake (%ID)

Known Drug uptake results, listed for orientation:
So what's the measured Drug uptake for this one? CNc1ccc(-c2nc3cc(OCCOCCOCC[18F])ccc3o2)cn1
28.65

So what's the measured Drug uptake for this one? CNc1ccc(-c2nc3ccc(OCCOCCOCC[18F])cc3s2)cn1
21.68

So what's the measured Drug uptake for this one? CN(C)c1ccc(-c2nc3cc(OCC[18F])ccc3o2)cn1
38.88

a. CN(C)c1ccc(-c2nc3ccc(OCCOCCOCC[18F])cc3s2)cn1
b. CN(C)c1ccc(-c2nc3cc(OCCOCCOCC[18F])ccc3o2)cn1
// max by Drug uptake over [ a , b ] Mark your selection by writing its label.
b
(b: 28.15 %ID, a: 19.57 %ID)

---

Test system: Intestine
experimentalDetails: Drug uptake in ICR mouse intestine assessed per organ at 370 kBq/100 ul, iv at 10 mins by gamma-counting analysis
Format: ADME, organism-based
conditionSet: in vivo
quantityKind: Drug uptake (%ID)

Known Drug uptake results, listed for orientation:
So what's the measured Drug uptake for this one? CNc1ccc(-c2nc3ccc(OCCOCCOCC[18F])cc3s2)cn1
10.06

So what's the measured Drug uptake for this one? CN(C)c1ccc(-c2nc3cc(OCC[18F])ccc3o2)cn1
21.45

So what's the measured Drug uptake for this one? CNc1ccc(-c2nc3cc(OCCOCCOCC[18F])ccc3o2)cn1
22.9

So what's the measured Drug uptake for this one? CNc1ccc(-c2nc3ccc(OCC[18F])cc3s2)cn1
11.15

So what's the measured Drug uptake for this one? CN(C)c1ccc(-c2nc3cc(OCCOCCOCC[18F])ccc3o2)cn1
14.45

A. CN(C)c1ccc(-c2nc3ccc(OCCOCCOCC[18F])cc3s2)cn1
B. CNc1ccc(-c2nc3cc(OCC[18F])ccc3o2)cn1
Hi, I'm comparing two records. Which one has the lower Drug uptake, A or B ? Mark your selection by writing its label.
A
(A: 10.4 %ID, B: 19.61 %ID)

---

Test system: Heart
experimentalDetails: Drug uptake in ICR mouse heart at 370 kBq/100 ul, iv at 30 mins by gamma-counting analysis
Format: ADME, organism-based
conditionSet: in vivo, 0.5 h
quantityKind: Drug uptake (% ID/g)

So what's the measured Drug uptake for this one? CN(C)c1ccc(-c2nc3cc(OCCOCCOCC[18F])ccc3o2)cn1
2.97

So what's the measured Drug uptake for this one? CN(C)c1ccc(-c2nc3cc(OCC[18F])ccc3o2)cn1
1.83

So what's the measured Drug uptake for this one? CNc1ccc(-c2nc3ccc(OCC[18F])cc3s2)cn1
3.33

So what's the measured Drug uptake for this one? CN(C)c1ccc(-c2nc3ccc(OCCOCCOCC[18F])cc3s2)cn1
2.62

So what's the measured Drug uptake for this one? CNc1ccc(-c2nc3cc(OCC[18F])ccc3o2)cn1
1.84

I. CNc1ccc(-c2nc3ccc(OCCOCCOCC[18F])cc3s2)cn1
II. CNc1ccc(-c2nc3cc(OCCOCCOCC[18F])ccc3o2)cn1
// max by Drug uptake over [ I , II ] Mark your selection by writing its label.
II
(II: 3.16 % ID/g, I: 1.96 % ID/g)

---

experimentalDetails: Metabolic stability in mouse plasma at 1.85 MBq after 60 mins by HPLC analysis
Format: ADME, cell-free
conditionSet: read-out: Stability
quantityKind: remaining at 1 h, 1.85 MBq

So what's the measured remaining at 1 h, 1.85 MBq for this one? CNc1ccc(-c2nc3cc(OCC[18F])ccc3o2)cn1
> 95%

---

Test system: Spleen
experimentalDetails: Drug uptake in ICR mouse spleen at 370 kBq/100 ul, iv at 2 mins by gamma-counting analysis
Type: ADME, organism-based
conditionSet: in vivo
quantityKind: Drug uptake (% ID/g)

So what's the measured Drug uptake for this one? CN(C)c1ccc(-c2nc3cc(OCC[18F])ccc3o2)cn1
3.22

a. CNc1ccc(-c2nc3cc(OCCOCCOCC[18F])ccc3o2)cn1
b. CNc1ccc(-c2nc3ccc(OCCOCCOCC[18F])cc3s2)cn1
Hi, I'm comparing two records. Which one has the lower Drug uptake, a or b ? Mark your selection by writing its label.
b
(b: 2.68 % ID/g, a: 4.13 % ID/g)

---

Test system: Brain
experimentalDetails: Drug uptake in healthy human brain at 370 KBq/100 ul after 1 hr by autoradiographic analysis
Assay type: ADME, tissue-based
conditionSet: in vitro
quantityKind: Drug uptake

Test system Brain; read-out Drug uptake; what value for CNc1ccc(-c2nc3cc(OCCOCCOCC[18F])ccc3o2)cn1 ?
Not Active

Test system Brain; read-out Drug uptake; what value for CNc1ccc(-c2nc3ccc(OCCOCCOCC[18F])cc3s2)cn1 ?
Not Active

Test system Brain; read-out Drug uptake; what value for CNc1ccc(-c2nc3ccc(OCC[18F])cc3s2)cn1 ?
Not Active

Test system Brain; read-out Drug uptake; what value for CNc1ccc(-c2nc3cc(OCC[18F])ccc3o2)cn1 ?
Not Active

---

Tested on: Bone
experimentalDetails: Drug uptake in ICR mouse bone at 370 kBq/100 ul, iv at 30 mins by gamma-counting analysis
Type: ADME, organism-based, Bone element
conditionSet: in vivo, 0.5 h
quantityKind: Drug uptake (% ID/g)

Test system Bone; read-out Drug uptake; what value for CN(C)c1ccc(-c2nc3cc(OCCOCCOCC[18F])ccc3o2)cn1 ?
4.71

A. CNc1ccc(-c2nc3ccc(OCCOCCOCC[18F])cc3s2)cn1
B. CNc1ccc(-c2nc3cc(OCCOCCOCC[18F])ccc3o2)cn1
Hi, I'm comparing two records. Which one has the lower Drug uptake, A or B ? Mark your selection by writing its label.
A

1. CNc1ccc(-c2nc3ccc(OCC[18F])cc3s2)cn1
2. CNc1ccc(-c2nc3cc(OCC[18F])ccc3o2)cn1
3. CN(C)c1ccc(-c2nc3cc(OCC[18F])ccc3o2)cn1
Sort by Drug uptake, descending. Output spec: labels arranged per the requested ranking.
1, 2, 3

---

Tested on: Kidney
experimentalDetails: Drug uptake in ICR mouse kidney at 370 kBq/100 ul, iv at 2 mins by gamma-counting analysis
Type: ADME, organism-based
conditionSet: in vivo
quantityKind: Drug uptake (% ID/g)

So what's the measured Drug uptake for this one? CN(C)c1ccc(-c2nc3cc(OCC[18F])ccc3o2)cn1
8.48

So what's the measured Drug uptake for this one? CN(C)c1ccc(-c2nc3ccc(OCCOCCOCC[18F])cc3s2)cn1
6.82

So what's the measured Drug uptake for this one? CNc1ccc(-c2nc3cc(OCC[18F])ccc3o2)cn1
7.45

So what's the measured Drug uptake for this one? CN(C)c1ccc(-c2nc3cc(OCCOCCOCC[18F])ccc3o2)cn1
8.27

I. CNc1ccc(-c2nc3ccc(OCC[18F])cc3s2)cn1
II. CNc1ccc(-c2nc3ccc(OCCOCCOCC[18F])cc3s2)cn1
// max by Drug uptake over [ I , II ] Mark your selection by writing its label.
I
(I: 9.57 % ID/g, II: 6.02 % ID/g)

---

Test system: Blood
experimentalDetails: Drug uptake in ICR mouse blood at 370 kBq/100 ul, iv at 2 mins by gamma-counting analysis
Assay type: ADME, organism-based
conditionSet: in vivo
quantityKind: Drug uptake (% ID/g)

Known Drug uptake results, listed for orientation:
Test system Blood; read-out Drug uptake; what value for CN(C)c1ccc(-c2nc3cc(OCCOCCOCC[18F])ccc3o2)cn1 ?
5.47

Test system Blood; read-out Drug uptake; what value for CNc1ccc(-c2nc3ccc(OCC[18F])cc3s2)cn1 ?
4.31

Test system Blood; read-out Drug uptake; what value for CNc1ccc(-c2nc3ccc(OCCOCCOCC[18F])cc3s2)cn1 ?
6.92

Test system Blood; read-out Drug uptake; what value for CN(C)c1ccc(-c2nc3cc(OCC[18F])ccc3o2)cn1 ?
3.57

Test system Blood; read-out Drug uptake; what value for CN(C)c1ccc(-c2nc3ccc(OCCOCCOCC[18F])cc3s2)cn1 ?
9.79

1. CNc1ccc(-c2nc3cc(OCCOCCOCC[18F])ccc3o2)cn1
2. CNc1ccc(-c2nc3cc(OCC[18F])ccc3o2)cn1
Hi, I'm comparing two records. Which one has the lower Drug uptake, 1 or 2 ? Mark your selection by writing its label.
2

---

Test system: Kidney
experimentalDetails: Drug uptake in ICR mouse kidney at 370 kBq/100 ul, iv at 30 mins by gamma-counting analysis
Format: ADME, organism-based
conditionSet: in vivo, 0.5 h
quantityKind: Drug uptake (% ID/g)

Known Drug uptake results, listed for orientation:
Test system Kidney; read-out Drug uptake; what value for CN(C)c1ccc(-c2nc3cc(OCC[18F])ccc3o2)cn1 ?
2.44

Test system Kidney; read-out Drug uptake; what value for CNc1ccc(-c2nc3ccc(OCC[18F])cc3s2)cn1 ?
3.62

Test system Kidney; read-out Drug uptake; what value for CN(C)c1ccc(-c2nc3cc(OCCOCCOCC[18F])ccc3o2)cn1 ?
4.2

Test system Kidney; read-out Drug uptake; what value for CN(C)c1ccc(-c2nc3ccc(OCCOCCOCC[18F])cc3s2)cn1 ?
3.88

Test system Kidney; read-out Drug uptake; what value for CNc1ccc(-c2nc3cc(OCCOCCOCC[18F])ccc3o2)cn1 ?
3.73

a. CNc1ccc(-c2nc3ccc(OCCOCCOCC[18F])cc3s2)cn1
b. CNc1ccc(-c2nc3cc(OCC[18F])ccc3o2)cn1
Hi, I'm comparing two records. Which one has the lower Drug uptake, a or b ? Mark your selection by writing its label.
b
(b: 2.17 % ID/g, a: 3.12 % ID/g)
